- assay-method-text: Acute toxicity (LD50, Behrens-Karber method)
- Assay type: in vivo, ICR mice
- condition-info: mouse, in vivo, ip, mortality during 30 days
Binarize LD50 at 720 h at 500 mg/kg; below is 1 (yes), at or above is 0 (no).

Solved entries (count: 6):
**Query** In plain terms, does CC(C)(C)N(C[C@H]1O[C@H](OC(c2ccccc2)C2CC2)[C@H](O)[C@@H](O)[C@@H]1O)C(=O)N(CCCl)N=O (stereo partly shown) [Compound 201] come in under 500 mg/kg for LD50 at 720 h?
**Result** 1 (yes)

**Query** Then what about the molecule COCCCO[C@H]1O[C@H](CN(C(=O)N(CCCl)N=O)C2CCCCC2)[C@@H](O)[C@H](O)[C@H]1O [Compound 174] ?
**Result** 0 (no)

**Query** Then what about the molecule COc1cccc(CO[C@H]2O[C@H](CN(CC(C)C)C(=O)N(CCCl)N=O)[C@@H](O)[C@H](O)[C@H]2O)c1OC [Compound 52] ?
**Result** 1 (yes)

**Query** Then what about the molecule CCCCN(C[C@H]1O[C@H](OC)[C@H](O)[C@@H](O)[C@@H]1O)C(=O)N(CCCl)N=O [Compound 6MCαGB, reference compound] ?
**Result** 1 (yes)

**Query** Then what about the molecule CCOCCN(C[C@H]1O[C@H](OC2CCCCC2)[C@H](O)[C@@H](O)[C@@H]1O)C(=O)N(CCCl)N=O [Compound 40] ?
**Result** 0 (no)

**Query** Then what about the molecule COCC(C)N(C(=O)N(CCCl)N=O)C1C(CO)OC(OCC(C)C)C(O)C1O (stereo not shown) [Compound 94] ?
**Result** 0 (no)

API: the following record is the query input.
**Query** In plain terms, does CC(C)CN(C[C@H]1O[C@@H](OC2CCCCC2)[C@@H](O)[C@@H]1O)C(=O)N(CCCl)N=O [Compound 161] come in under 500 mg/kg for LD50 at 720 h?
**Result** 1 (yes)

###

- Test system: Leukemia L1210
- assay-method-text: Activity against Leukemia L1210, intraperitoneal, increase in life span of mice
- Format: in vivo, female mice (BDF1 family)
- condition-info: Mus musculus, L1210, ip, ip once a day for 5 successive days; daily dosage giving maximum increase of life span; read-out: O.D. (optimum dosage)
result-type: ED (maximum ILS) (mg/kg)
Report only the number, with the unit mg/kg understood.

Sample answers from the record:
**Query** Please provide the recorded ED (maximum ILS) for CCCN(C(=O)N(CCCl)N=O)C1C(CO)OC(OCC(C)C)C(O)C1O (stereo not shown) [Compound 90] , tested on Leukemia L1210.
**Result** 100

**Query** Then what about the compound CCC(C)OC1OC(CO)C(N(C(=O)N(CCCl)N=O)C(C)COC)C(O)C1O (stereo not shown) [Compound 96] ?
**Result** 150

**Query** Then what about the compound O=NN(CCCl)C(=O)N(CC1CCCO1)[C@H]1[C@H](O)[C@@H](OCCc2ccccc2)O[C@H](CO)[C@H]1O (stereo partly shown) [Compound 143] ?
**Result** 150

Now take the following compound into account.
**Query** Please provide the recorded ED (maximum ILS) for CO[C@H]1O[C@H](CN(CCO)C(=O)N(CCCl)N=O)[C@@H](O)[C@H](O)[C@H]1O [Compound 6MCαGHE, reference compound] , tested on Leukemia L1210.
**Result** 30
